- run-description: chemical genetic growth profiling, strain panel (AID 1159580);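 also: tested at 20 µM; growth read once vehicle control cultures reached saturation at 30 °C; 1 = growth at the plate median or of vehicle wells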
- test-conditions: S. cerevisiae deletion strains, growth OD, locus YEL061C, strain CIN8 (second series), stronger effect = lower value
The campaign covered roughly 5,500 compounds. About 2,000 (36%) were called active. Another 18% or so got no clear call; they are omitted. This is one part of the list.
Field: label. Allowed values: Criterion met (normalized growth < 1) or Criterion not met (normalized growth >= 1).

> print(dat)
                        substance.smiles          group
1  CCCCC/C=C\C/C=C\C/C=C\C/C=C\CCCC(=O)O  Criterion met
2       CC(C)=CCOc1c2occc2cc2ccc(=O)oc12  Criterion met
3         C=C(C)c1cc2cc(C(C)=O)c(O)cc2o1  Criterion met

Now look at this entry.
In: Hello, I'm reviewing records and need to know if normalized growth of Cn1cnc([N+](=O)[O-])c1Sc1ncnc2nc[nH]c12 is below 1. Could you check?
Out: Criterion not met

----------
normalized growth listing for selected molecules.
- run-description: chemical genetic growth profiling, strain panel (AID 1159580)
- test-conditions: S. cerevisiae deletion strains, growth OD, locus YFR010W, strain ubp6, stronger effect = lower value
The campaign covered roughly 5,500 compounds. About 2,000 (36%) were called active. Not shown: some 18% with an inconclusive outcome. This is one part of the list.
I only need the number, thanks.

> print(dat)
                           substance.smiles  reported.endpoint  numeric.result
1  O=c1[nH]c2ccccc2n1C1CCN(CCCC(c2ccc(F)cc2)c2ccc(F)cc2)CC1  normalized growth           0.878
2  O=c1[nH]c2ccccc2n1CCCN1CCC(n2c(=O)[nH]c3cc(Cl)ccc32)CC1  normalized growth           0.951
3     COc1ccc(Cc2nccc3cc(OC)c(OC)cc23)cc1OC  normalized growth           0.998

We next turn to a different molecule, shown below.
Documented normalized growth of CCOc1ccc(Cc2nccc3cc(OCC)c(OCC)cc23)cc1OCC : 0.97

----------
- run-description: chemical genetic growth profiling, strain panel (AID 1159580)
- test-conditions: S. cerevisiae deletion strains, growth OD, locus YHR079C, strain IRE1, stronger effect = lower value
Among all 5,500 compounds or so, about 2,000 (36%) were called active. Roughly 18% stayed inconclusive and do not appear here. The list shows a part of the results.
reported-endpoint: normalized growth
I only need the number, thanks.

Worked examples follow.
> print(dat)
                           substance.smiles  numeric.result
1  COc1ccc2c(=O)c(-c3cc4c(cc3OC)OCO4)coc2c1           0.982
2      O=C(O)CCCN1C(=O)c2cccc3cccc(c23)C1=O           0.998
3     COc1ccc(Cc2nccc3cc(OC)c(OC)cc23)cc1OC           0.972
4  O=C(c1ccc(Cl)cc1)N1CCN(c2ccc(C(F)(F)F)cn2)CC1            0.88

We next turn to a different compound, shown below.
Documented normalized growth of Fc1ccc(C(c2ccc(F)cc2)N2CCN(C/C=C/c3ccccc3)CC2)cc1 : 0.991

----------
normalized growth listing for selected compounds.
- run-description: chemical genetic growth profiling, strain panel (AID 1159580)
- test-conditions: S. cerevisiae deletion strains, growth OD, locus YOR316C, strain cot1, stronger effect = lower value
Out of some 5,500 compounds screened, about 2,000 (36%) were called active. Not shown: some 18% with an inconclusive outcome. This is one part of the list.
I only need the number, thanks.

Documented normalized growth of CC(=O)O[C@@H]1CC2C(C)(C)C(=O)[C@@H]3O[C@@H]3[C@]2(C)C2CC[C@]3(C)C(=CC(=O)O[C@H]3c3ccoc3)[C@@]21C (stereo not given in full) : 0.986

Documented normalized growth of CCNc1nc(Cl)nc(NC(C)C)n1 : 1.03

Documented normalized growth of CN(C)c1nc(N(C)C)nc(N(C)C)n1 : 1.02

Documented normalized growth of O=c1n(CCCN2CCN(c3cccc(Cl)c3)CC2)nc2ccccn12 : 0.99

Documented normalized growth of CC(=O)N[C@@H](CC(=O)O)C(=O)O : 1.01

----------
- run-description: chemical genetic growth profiling, strain panel (AID 1159580)
- test-conditions: S. cerevisiae deletion strains, growth OD, locus YKL160W, strain elf1, stronger effect = lower value
In all, about 5,500 compounds went through this assay and about 2,000 (36%) were called active. Inconclusive results (about 18%) are left out. This is one part of the list.
reported-endpoint: normalized growth
I only need the number, thanks.

Worked examples follow.
molecule	numeric-result
O=C1OC(=O)C2C3CCC(O3)C12 (configuration not stated)	1.04
CN(C)c1nc(N(C)C)nc(N(C)C)n1	0.985
O=c1cc(-c2ccc(O)cc2)oc2cc(O[C@@H]3O[C@H](CO)[C@@H](O)[C@H](O)[C@H]3O[C@@H]3OC[C@](O)(CO)[C@H]3O)cc(O)c12	1.01
CC(C)(O)CC[C@@H](O)[C@](C)(O)C1CC[C@@]2(O)C3=CC(=O)C4C[C@@H](O)[C@@H](O)C[C@]4(C)C3CC[C@]12C (some centres not stated)	1
CC1=C2CCC3C(CC[C@]4(C)C(=O)CCC34)[C@@]2(C)CCC1=O (some centres not stated)	0.936
O=C1c2ccc(O)c(O)c2C(=O)c2c(O)ccc(O)c21	0.869

We next turn to a different molecule, shown below.
Documented normalized growth of CNC(=O)CSP(=S)(OC)OC : 1.01

----------
- run-description: chemical genetic growth profiling, strain panel (AID 1159580);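 also: tested at 20 µM; growth read once vehicle control cultures reached saturation at 30 °C; 1 = growth at the plate median or of vehicle wells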
- test-conditions: S. cerevisiae deletion strains, growth OD, locus YNL250W, strain rad50, stronger effect = lower value
Out of some 5,500 compounds screened, about 2,000 (36%) were called active. About 18% were inconclusive and are not listed. The list shows a part of the results.
reported-endpoint: normalized growth
I only need the number, thanks.

Worked examples follow.
> print(dat)
                                   molecule  numeric.result
1                     O=c1[nH]cnc2nc[nH]c12           0.977
2  Cc1cc(O)c2c(c1O)C(=O)c1c(O)cc(C)c(O)c1C2=O           0.974
3  COC(=O)C[C@H]1C(C)(C)C(OC(C)=O)[C@]2(O)C=C3C4CC(=O)O[C@@H](c5ccoc5)[C@]4(C)CCC3[C@@]1(C)C2=O (stereo partly drawn)            1.01

Documented normalized growth of COc1cc2ccc(=O)oc2c2ccoc12 : 0.856

Documented normalized growth of O=C1c2ccccc2C(=O)c2c1ccc(O)c2O : 0.895

Documented normalized growth of COP(=S)(OC)SCn1nnc2ccccc2c1=O : 0.978

Documented normalized growth of c1coc(CNc2ncnc3nc[nH]c23)c1 : 0.995

Documented normalized growth of O=c1c(-c2ccc3c(c2)OCO3)coc2cc(O)ccc12 : 0.989

Documented normalized growth of CN1Cc2c(N)cccc2C(c2ccccc2)C1 (stereo not drawn) : 1.02

Documented normalized growth of COc1c2c(cc3occ(-c4ccc5c(c4)OCO5)c(=O)c13)OC(C)(C)C=C2 : 0.925

Documented normalized growth of NCCS : 1.02

Documented normalized growth of COC(=O)C[C@H]1C(C)(C)[C@@H](OC(C)=O)[C@@H]2CC3C4CC(=O)O[C@@H](c5ccoc5)[C@]4(C)CCC3[C@@]1(C)C2=O (stereo partly drawn) : 1.04

Documented normalized growth of CN(C)c1nc(N(C)C)nc(N(C)C)n1 : 1.04

----------
- run-description: chemical genetic growth profiling, strain panel (AID 1159580);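 also: tested at 20 µM; growth read once vehicle control cultures reached saturation at 30 °C; 1 = growth at the plate median or of vehicle wells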
- test-conditions: S. cerevisiae deletion strains, growth OD, locus YDL185W, strain tfp1
Among all 5,500 compounds or so, about 2,000 (36%) were called active. Not shown: some 18% with an inconclusive outcome. No stated cut-off is given here; in the data, active means normalized growth mostly below about 0.91 (no sharp cut-off); inconclusive means no clear call, values can overlap the other calls; inactive means mostly above about 0.92. The list shows a part of the results.
Select the matching outcome among TRUE (active), FALSE (inactive)

In: Lab log entry: Nc1ncnc2c1ncn2[C@@H]1O[C@H](CO)[C@@H](O)[C@@H]1O — outcome as called in the assay?
Out: FALSE

----------
- run-description: chemical genetic growth profiling, strain panel (AID 1159580);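 also: tested at 20 µM; growth read once vehicle control cultures reached saturation at 30 °C; 1 = growth at the plate median or of vehicle wells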
- test-conditions: S. cerevisiae deletion strains, growth OD, locus YPL055C, strain LGE1
About 2,000 (36%) of roughly 5,500 compounds were called active. Another 18% or so got no clear call; they are omitted. Rule as the data show it: active = normalized growth mostly below about 0.91 (no sharp cut-off); inconclusive = no clear call, values can overlap the other calls; inactive = mostly above about 0.92. The list shows a part of the results.
Select the matching outcome among active, inactive

> print(dat)
                                   molecule     group
1  O=S(=O)(c1ccc(Cl)c(Cl)c1)N1CCN(c2ccc(C(F)(F)F)cn2)CC1  inactive

In: Lab log entry: O=C(CSc1nnc(-c2ccco2)n1-c1ccc2c(c1)OCCO2)c1cccc(F)c1 — outcome as called in the assay?
Out: inactive

In: Lab log entry: COc1ccc(-n2c(SCc3ccc(Br)cc3)nnc2-c2ccco2)cc1 — outcome as called in the assay?
Out: inactive
